Source of measurements: patent US11274095B2

Assay: Cellular permeability in MDCK assay
Assay type: in vitro ADME
Settings: dog, pH 7.4; MDCK II, 2 μM, with P-gp inhibitor GF120918 10 μM, 2.5 hours
Below, each entry is listed alongside its reported Papp at 2.5 h, 2 μM.
The figure you give is taken to be in ×10⁻⁶ cm/s; do not add the unit.

Before answering, review these 5 worked examples.
compound	quantity unit	Papp at 2.5 h, 2 μM
CSc1nc(C)[nH]c(=O)c1CNC(=O)c1cc(Cl)c2c(c1C)O[C@@](C)([C@H]1CC[C@H](N(C)C)CC1)O2	×10⁻⁶ cm/s	1.1
CSc1cc(C)[nH]c(=O)c1CNC(=O)c1cc(Cl)c2c(c1C)OC(C)(C1CCC(N3CC(F)(F)C3)CC1)O2 (single isomer, unassigned) [Example 7-Enantiomer 2]	×10⁻⁶ cm/s	12
CSc1cc(C)[nH]c(=O)c1CNC(=O)c1cc(Cl)c2c(c1C)OC(C)(C1CCC(N3CC(OC4CC4)C3)CC1)O2 (single isomer, unassigned)	×10⁻⁶ cm/s	3.8
CSc1cc(C)[nH]c(=O)c1CNC(=O)c1cc(Cl)c2c(c1C)OC(C)(C1CCC(N3CC(OC(F)F)C3)CC1)O2 (single isomer, unassigned)	×10⁻⁶ cm/s	5.6
COC1CN(C2CCC(C3(C)Oc4c(Cl)cc(C(=O)NCc5c(SC)cc(C)[nH]c5=O)c(C)c4O3)CC2)C1 (single isomer, unassigned)	×10⁻⁶ cm/s	2.5

Now examine the next entry.
Please fill in: Papp at 2.5 h, 2 μM reported for CSc1cc(C)[nH]c(=O)c1CNC(=O)c1cc(Cl)c2c(c1C)OC(C)(C1CCC(N3CC(F)C3)CC1)O2 (single isomer, unassigned) = 6.3

* * *

Target: PRC2 containing wt EZH2 (Homo sapiens (Human), UniProt Q15910)
Sequence (Q15910 whole entry): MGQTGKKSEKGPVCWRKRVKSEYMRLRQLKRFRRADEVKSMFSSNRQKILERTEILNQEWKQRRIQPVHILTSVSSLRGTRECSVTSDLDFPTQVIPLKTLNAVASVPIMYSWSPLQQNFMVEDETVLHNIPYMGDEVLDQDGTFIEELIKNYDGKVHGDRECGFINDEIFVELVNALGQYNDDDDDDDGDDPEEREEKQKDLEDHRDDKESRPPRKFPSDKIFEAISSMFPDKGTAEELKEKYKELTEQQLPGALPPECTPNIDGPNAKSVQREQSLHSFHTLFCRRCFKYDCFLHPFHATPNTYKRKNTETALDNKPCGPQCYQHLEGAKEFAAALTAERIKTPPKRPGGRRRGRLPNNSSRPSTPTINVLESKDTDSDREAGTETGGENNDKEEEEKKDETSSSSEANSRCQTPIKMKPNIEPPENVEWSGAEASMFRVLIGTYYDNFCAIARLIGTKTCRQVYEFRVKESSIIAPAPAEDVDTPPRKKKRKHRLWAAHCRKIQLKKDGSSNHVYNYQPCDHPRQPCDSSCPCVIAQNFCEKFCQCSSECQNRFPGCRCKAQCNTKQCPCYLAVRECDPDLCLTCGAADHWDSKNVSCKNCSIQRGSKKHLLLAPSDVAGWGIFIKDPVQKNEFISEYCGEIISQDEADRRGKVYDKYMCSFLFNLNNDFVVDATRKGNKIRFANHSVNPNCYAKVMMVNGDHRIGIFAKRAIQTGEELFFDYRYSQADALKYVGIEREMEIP
Sequence (O75530 whole entry partner): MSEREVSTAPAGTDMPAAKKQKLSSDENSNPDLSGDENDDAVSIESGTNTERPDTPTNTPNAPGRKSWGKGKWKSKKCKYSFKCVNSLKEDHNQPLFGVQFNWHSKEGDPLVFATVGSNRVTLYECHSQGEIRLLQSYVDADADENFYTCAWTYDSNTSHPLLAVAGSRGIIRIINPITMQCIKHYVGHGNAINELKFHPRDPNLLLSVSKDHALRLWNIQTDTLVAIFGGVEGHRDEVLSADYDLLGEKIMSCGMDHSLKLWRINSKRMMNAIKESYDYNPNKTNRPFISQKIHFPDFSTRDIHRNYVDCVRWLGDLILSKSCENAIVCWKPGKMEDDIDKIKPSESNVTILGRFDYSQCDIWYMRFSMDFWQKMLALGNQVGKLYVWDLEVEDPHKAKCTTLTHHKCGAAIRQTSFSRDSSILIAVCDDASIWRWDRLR
Sequence (Q15022 whole entry partner): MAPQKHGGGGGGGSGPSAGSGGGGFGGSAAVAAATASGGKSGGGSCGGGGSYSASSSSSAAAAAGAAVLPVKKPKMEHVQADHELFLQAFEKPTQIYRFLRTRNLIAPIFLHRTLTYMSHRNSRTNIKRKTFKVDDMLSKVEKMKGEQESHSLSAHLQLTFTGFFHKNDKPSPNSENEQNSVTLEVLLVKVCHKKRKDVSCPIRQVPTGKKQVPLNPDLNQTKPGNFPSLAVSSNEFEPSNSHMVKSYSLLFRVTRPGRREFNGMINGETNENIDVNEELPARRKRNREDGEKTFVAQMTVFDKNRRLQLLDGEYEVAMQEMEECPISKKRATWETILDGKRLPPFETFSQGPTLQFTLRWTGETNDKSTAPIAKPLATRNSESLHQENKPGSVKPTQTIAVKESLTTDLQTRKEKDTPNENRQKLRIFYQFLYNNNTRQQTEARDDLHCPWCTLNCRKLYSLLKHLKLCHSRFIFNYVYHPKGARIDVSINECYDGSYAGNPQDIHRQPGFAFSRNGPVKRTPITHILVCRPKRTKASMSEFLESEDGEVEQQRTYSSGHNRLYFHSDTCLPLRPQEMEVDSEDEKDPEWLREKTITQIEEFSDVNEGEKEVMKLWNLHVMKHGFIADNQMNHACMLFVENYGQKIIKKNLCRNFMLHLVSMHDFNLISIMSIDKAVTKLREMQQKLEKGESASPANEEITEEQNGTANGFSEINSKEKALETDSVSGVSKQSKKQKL
Sequence (Q09028 whole entry partner): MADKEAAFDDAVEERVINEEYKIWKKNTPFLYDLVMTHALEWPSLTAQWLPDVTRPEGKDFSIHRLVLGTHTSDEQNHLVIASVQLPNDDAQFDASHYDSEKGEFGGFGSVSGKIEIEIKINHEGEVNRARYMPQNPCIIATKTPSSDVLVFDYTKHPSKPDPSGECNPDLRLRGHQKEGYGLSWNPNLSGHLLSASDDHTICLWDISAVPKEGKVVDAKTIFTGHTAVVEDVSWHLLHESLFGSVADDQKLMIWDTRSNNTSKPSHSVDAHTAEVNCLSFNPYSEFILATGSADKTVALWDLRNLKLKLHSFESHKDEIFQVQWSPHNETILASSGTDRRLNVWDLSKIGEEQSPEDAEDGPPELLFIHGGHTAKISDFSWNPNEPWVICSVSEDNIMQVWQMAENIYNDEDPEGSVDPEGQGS
Sequence (Q6ZN18 whole entry partner): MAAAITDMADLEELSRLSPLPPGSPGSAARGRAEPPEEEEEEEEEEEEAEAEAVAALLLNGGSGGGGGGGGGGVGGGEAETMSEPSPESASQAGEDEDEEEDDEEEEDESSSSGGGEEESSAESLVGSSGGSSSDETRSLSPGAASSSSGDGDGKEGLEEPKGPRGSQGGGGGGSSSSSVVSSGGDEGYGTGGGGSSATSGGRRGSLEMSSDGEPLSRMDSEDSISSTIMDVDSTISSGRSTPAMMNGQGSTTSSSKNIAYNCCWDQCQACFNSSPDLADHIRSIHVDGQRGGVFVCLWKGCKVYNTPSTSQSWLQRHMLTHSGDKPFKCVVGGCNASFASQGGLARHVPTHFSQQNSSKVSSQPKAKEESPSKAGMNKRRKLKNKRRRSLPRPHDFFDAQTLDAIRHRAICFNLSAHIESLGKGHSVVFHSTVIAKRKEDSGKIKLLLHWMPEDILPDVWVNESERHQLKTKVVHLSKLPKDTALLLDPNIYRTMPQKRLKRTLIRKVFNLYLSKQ
Test: EZH2 residence time assay (100-fold dilution of enzyme-inhibitor complex)
Type: biochemical
Details: recovery of enzyme activity after 100-fold dilution; read-out: EZH2 residence time (converted)
The molecules listed here are annotated with their residence time.
Field: numeric (min). Do not append units.

molecule	quantity unit	result value
CSc1cc(C)[nH]c(=O)c1CNC(=O)c1cc(Cl)c2c(c1C)OC(C)(C1CCC(N3CC(F)(F)C3)CC1)O2 (single isomer, unassigned) [Example 7-Enantiomer 2]	min	1980
Cc1cc(Cl)c(CNC(=O)c2cc(Cl)c3c(c2C)OC(C)(C2CCC(N4CC(OC(F)F)C4)CC2)O3)c(=O)[nH]1 (single isomer, unassigned) [Example 13]	min	2880

Entry CSc1nc(C)[nH]c(=O)c1CNC(=O)c1cc(Cl)c2c(c1C)OC(C)(C1CCC(N3CC(OC(F)F)C3)CC1)O2 (single isomer, unassigned) [Example 10] ; assay system PRC2 containing wt EZH2 (Homo sapiens (Human), UniProt Q15910); residence time recorded at 2220

* * *

Assay: Cellular permeability in MDCK assay
Format: in vitro ADME
Details: dog, pH 7.4; MDCK II, 2 μM, with P-gp inhibitor GF120918 10 μM, 2.5 hours
Classify by measured Papp at 2.5 h, 2 μM: yes if it is equal to or exceeds 60 nm/s, no if it is smaller.

compound	assigned class
CSc1cc(C)[nH]c(=O)c1CNC(=O)c1cc(Cl)c2c(c1C)OC(C)(C1CCC(NC3(CF)COC3)CC1)O2 (single isomer, unassigned) [Example 11 (geometric isomer 1)]	no
CSc1cc(C)[nH]c(=O)c1CNC(=O)c1cc(Cl)c2c(c1C)OC(C)(C1CCN(CC(F)(F)F)CC1)O2 (single isomer, unassigned) [Example 14-Enantiomer 2]	yes
CSc1cc(Cl)[nH]c(=O)c1CNC(=O)c1cc(Cl)c2c(c1C)O[C@@](C)([C@H]1CC[C@H](N(C)C)CC1)O2	no
Cc1cc(Cl)c(CNC(=O)c2cc(Cl)c3c(c2C)OC(C)(C2CCC(N4CC(OC(F)F)C4)CC2)O3)c(=O)[nH]1 (single isomer, unassigned)	yes
CSc1nc(C)[nH]c(=O)c1CNC(=O)c1cc(Cl)c2c(c1C)OC(C)(C1CCC(N3CC(OC(F)F)C3)CC1)O2 (single isomer, unassigned)	yes

Now, please, on to the next compound.
(Q) Reported Papp at 2.5 h, 2 μM reaches at least 60 nm/s for CSc1cc(C)[nH]c(=O)c1CNC(=O)c1cc(Cl)c2c(c1C)O[C@@](C)([C@H]1CC[C@H](N(C)C)CC1)O2 ?
(A) no
